The reported measurements were obtained from BigSolDB 2.1.

settings: in ethanol, 313.15 K
readout.label: solubility (mole fraction)

smiles: O=C(O)c1ccccc1
quantitative.readout: 0.234

====

settings: in n-heptane, 293.15 K

smiles: O=C(O)c1ccccc1
solubility (mole fraction): 0.01

====

settings: in cyclohexane, 303.15 K

smiles: O=C(O)c1ccccc1
solubility (mole fraction): 0.015

====

settings: in cyclohexane, 313.15 K
readout.label: solubility (mole fraction)

smiles: O=C(O)c1ccccc1
readout.label: solubility (mole fraction)
quantitative.readout: 0.025

====

settings: in n-pentane, 303.15 K

smiles: O=C(O)c1ccccc1
solubility (mole fraction): 0.011

====

settings: in toluene, 278.15 K

smiles: O=C(O)c1ccccc1
solubility (mole fraction): 0.035

====

settings: in cyclohexane, 293.15 K

smiles: O=C(O)c1ccccc1
solubility (mole fraction): 0.009

====

settings: in ethanol, 278.15 K
readout.label: solubility (mole fraction)

smiles: O=C(O)c1ccccc1
quantitative.readout: 0.128

====

settings: in n-pentane, 293.15 K

smiles: O=C(O)c1ccccc1
solubility (mole fraction): 0.007

====

settings: in ethanol, 323.15 K

smiles: O=C(O)c1ccccc1
solubility (mole fraction): 0.276

====

settings: in ethanol, 293.15 K
readout.label: solubility (mole fraction)

smiles: O=C(O)c1ccccc1
quantitative.readout: 0.166

====

settings: in chloroform, 293.15 K

smiles: O=C(O)c1ccccc1
solubility (mole fraction): 0.114

====

settings: in toluene, 293.15 K
readout.label: solubility (mole fraction)

smiles: O=C(O)c1ccccc1
readout.label: solubility (mole fraction)
quantitative.readout: 0.062

====

settings: in n-pentane, 283.15 K

smiles: O=C(O)c1ccccc1
solubility (mole fraction): 0.005

====

settings: in chloroform, 278.15 K

smiles: O=C(O)c1ccccc1
solubility (mole fraction): 0.074

====

settings: in toluene, 283.15 K

smiles: O=C(O)c1ccccc1
solubility (mole fraction): 0.043

====

settings: in n-heptane, 313.15 K

smiles: O=C(O)c1ccccc1
solubility (mole fraction): 0.022

====

settings: in chloroform, 303.15 K

smiles: O=C(O)c1ccccc1
solubility (mole fraction): 0.151

====

settings: in ethanol, 283.15 K

smiles: O=C(O)c1ccccc1
solubility (mole fraction): 0.139

====

settings: in toluene, 313.15 K
readout.label: solubility (mole fraction)

smiles: O=C(O)c1ccccc1
readout.label: solubility (mole fraction)
quantitative.readout: 0.128

====

settings: in n-heptane, 278.15 K

smiles: O=C(O)c1ccccc1
solubility (mole fraction): 0.005

====

settings: in toluene, 303.15 K

smiles: O=C(O)c1ccccc1
solubility (mole fraction): 0.089

====

settings: in n-heptane, 303.15 K
readout.label: solubility (mole fraction)

smiles: O=C(O)c1ccccc1
readout.label: solubility (mole fraction)
quantitative.readout: 0.015

====

settings: in cyclohexane, 283.15 K

smiles: O=C(O)c1ccccc1
solubility (mole fraction): 0.006

====

settings: in n-pentane, 278.15 K
readout.label: solubility (mole fraction)

smiles: O=C(O)c1ccccc1
readout.label: solubility (mole fraction)
result: 0.004
